Test system: HEK-293T
Assay Details: Multiplex assay against HEK293T
Format: toxicity, cell-based
Run Parameters: human, 12 h, 10 µM, compound concentration 10 uM, replicate 1
Would you kindly list Population Healthy Nuclei (%) for each of these molecules?
Express your answer in %, writing the number without its unit.

-- ask May I ask what Population Healthy Nuclei (%) has been recorded for Oc1c(CN2CCN(c3ccccn3)CC2)cc(Cl)c2cccnc12 ?
-- reply 64

-- ask Then what about the molecule COc1cc(NC(=O)CCN2CCC(OC(=O)Nc3ccccc3-c3ccccc3)CC2)c(Cl)cc1CNC[C@H](O)c1ccc(O)c2[nH]c(=O)ccc12 ?
-- reply 0

-- ask Record: CCCN1CCC[C@@H]2Cc3n[nH]cc3C[C@H]21.Cl [QUINPIROLE HYDROCHLORIDE]
-- reply 72

-- ask What do you get for CC(C)(C)c1ccc(S(=O)(=O)Nc2ccc(Cl)cc2C(=O)c2cc[n+]([O-])cc2)cc1 ?
-- reply 83

-- ask Try this molecule too: CC(=O)NCCc1c(Cc2ccccc2)[nH]c2ccccc12
-- reply 77

-- ask What do we get for CN1CCN2c3ncccc3Cc3ccccc3C2C1 (stereo not given) ?
-- reply 75

-- ask Same read-out for CN1CCN(c2nc3cc(C(F)(F)F)ccc3n3cccc23)CC1.O=C(O)/C=C\C(=O)O.O=C(O)/C=C\C(=O)O ?
-- reply 76

-- ask Query O=C(NCC(=O)N1CC[C@H](N[C@H]2CC[C@@](O)(c3ccc(-c4ncccn4)cn3)CC2)C1)c1cccc(C(F)(F)F)c1 next
-- reply 76

-- ask Same question for CCOc1c2c(c(OCC)c3ncccc13)CN(c1ccc(CS(=O)(=O)NC(=O)Cc3ccccc3OC)cc1C)C2=O please.
-- reply 78

-- ask And CCCC(CCC)C(=O)O ?
-- reply 82

-- ask Please give the result for CC1(COc2ccc3c(c2)ncn3-c2ccc3cccc(N4CCC(N)CC4)c3n2)COC1 too.
-- reply 13

-- ask Query Cl.Clc1ccc2nsnc2c1NC1=NCCN1 [TIZANIDINE HYDROCHLORIDE] next
-- reply 80

-- ask Likewise for CCCn1c(=O)c2[nH]c(C3CCCC3)nc2n(CCC)c1=O ?
-- reply 68

-- ask Follow-up item: O=C(O)c1cc2ccccc2c(Cc2c(O)c(C(=O)O)cc3ccccc23)c1O
-- reply 79

-- ask Follow-up entry: CN(C)CCCc1cc(C(=O)Nc2ccc(-c3ccncc3)cc2)ccc1O.Cl.Cl
-- reply 81

-- ask And then Cc1nc2ccc(Oc3ccc(F)cc3)cc2c(=O)n1C[C@H]1CCCN(C(C)C)C1.Cl , what is it?
-- reply 78

-- ask Now give it for Cc1ccc(F)cc1C(=O)Nc1ccc(C(=O)N2Cc3cccn3Cc3ccccc32)c(Cl)c1 too.
-- reply 70

-- ask Request: N#Cc1c(N)nc(SCc2csc(-c3ccc(Cl)cc3)n2)c(C#N)c1-c1ccc(OCCO)cc1
-- reply 75

-- ask Follow-up entry: CC[C@H]1OC(=O)[C@H](C)[C@@H](O[C@H]2C[C@@](C)(OC)[C@@H](O)[C@H](C)O2)[C@H](C)[C@@H](O[C@@H]2O[C@H](C)C[C@H](N(C)C)[C@H]2O)[C@@]2(C)CC(C)=C(O2)[C@H](C)[C@@H](O)[C@]1(C)O
-- reply 71

-- ask Now consider O=C(O)Cc1ccccc1Nc1c(Cl)cccc1Cl .
-- reply 77

-- ask // repeat for O=C1COc2nccc(-c3ccccc3F)c2CN1Cc1cc(C(F)(F)F)cc(C(F)(F)F)c1 and report
-- reply 76

-- ask Please answer likewise for CNC[C@H](O)c1ccc(O)c(O)c1 [EPINEPHRINE]
-- reply 75

-- ask Okay, and c1cc(OCCCN2CCCCC2)ccc1CN1CCCCC1 ?
-- reply 75

-- ask Can you check CSc1ccccc1N1CCN(CCCCCC(=O)NC2CCCc3ccccc32)CC1.Cl (stereo not given) next?
-- reply 68

-- ask Another: COc1cc(C(=O)N(CCCc2ccccc2)Cc2ccc(CC(=O)O)cc2)cc(OC)c1C
-- reply 77

-- ask Same again, this time with Cc1ccc(C(C)(O)c2nc3ccccc3s2)c(C)c1 (stereo not given)
-- reply 82

-- ask And Cc1ccc(/C(=C\CN2CCCC2)c2ccccn2)cc1 ?
-- reply 72

-- ask Another molecule to look at: O=S(=O)(c1ccccc1)c1cnc2c(N3CCNCC3)cccc2c1 [INTEPIRDINE]
-- reply 72

-- ask Follow-up item: Cc1ccccc1C(=O)Nc1ccc(C(=O)N2CCCC(N(C)C)c3ccccc32)cc1.Cl (stereo not given)
-- reply 70

-- ask Record: COc1ccc2c(c1)C(C(=O)N(Cc1ccc(N(C)C)cc1)c1ccc(C(C)C)cc1)CCC2.Cl (stereo not given)
-- reply 78

-- ask Subsequent entry: CCNC1(C(N)=O)CCN(c2ncnc3c2nc(-c2ccccc2Cl)n3-c2ccc(Cl)cc2)CC1
-- reply 74

-- ask Queued: COc1c(C)cc(NC(=O)c2nn(Cc3ccc(F)cc3)c3c2CN(C(=O)c2ccc[nH]2)C[C@]3(C)C(N)=O)cc1C
-- reply 77

-- ask What would you report for Cc1ccc(-c2ccc(F)cc2COc2ccc(CCC(=O)O)cc2)cc1 ?
-- reply 79

-- ask Try this molecule next: N[C@@]1(C(=O)O)CO[C@H]2[C@H](C(=O)O)[C@H]21
-- reply 78

-- ask Try this molecule next: C[C@H](NC(=O)c1c(C(F)F)nn(C)c1Oc1cccc(C(F)(F)F)c1)c1ccc(C(=O)O)cc1
-- reply 76
